target: Human Factor B (human, UniProt P00751 26-764); test: cell-based or functional assay
Sequence (P00751 26-764 limits assumed): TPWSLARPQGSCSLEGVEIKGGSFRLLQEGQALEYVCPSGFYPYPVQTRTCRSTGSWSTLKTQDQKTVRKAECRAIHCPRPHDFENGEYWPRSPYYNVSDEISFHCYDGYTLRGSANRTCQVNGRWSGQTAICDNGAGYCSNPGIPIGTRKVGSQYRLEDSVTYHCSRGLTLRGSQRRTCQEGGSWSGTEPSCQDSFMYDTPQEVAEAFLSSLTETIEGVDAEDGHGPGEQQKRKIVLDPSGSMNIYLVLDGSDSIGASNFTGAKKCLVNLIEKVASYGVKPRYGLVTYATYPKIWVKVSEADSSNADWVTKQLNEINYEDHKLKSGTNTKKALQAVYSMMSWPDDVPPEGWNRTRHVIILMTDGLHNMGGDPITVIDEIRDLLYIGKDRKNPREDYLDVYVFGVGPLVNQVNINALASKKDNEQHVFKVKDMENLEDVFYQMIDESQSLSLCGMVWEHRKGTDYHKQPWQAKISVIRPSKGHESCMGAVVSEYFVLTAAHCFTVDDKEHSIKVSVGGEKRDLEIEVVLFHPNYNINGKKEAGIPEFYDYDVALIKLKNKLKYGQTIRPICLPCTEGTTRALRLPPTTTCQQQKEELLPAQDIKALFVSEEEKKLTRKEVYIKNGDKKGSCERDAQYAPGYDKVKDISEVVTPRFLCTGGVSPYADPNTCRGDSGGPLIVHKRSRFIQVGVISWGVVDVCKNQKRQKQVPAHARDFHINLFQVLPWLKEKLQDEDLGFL
Metric: fB Cleavage EC50 (µM)
Write the number in µM without appending the unit.

INPUT: Look at this binder and give its reported fB Cleavage EC50. chymase C22S/A226R (enzyme) IIGGTESKPHSRPYMAYLEIVTSNGPSKFCGGFLIRRNFVLTAAHCAGRSITVTLGAHNITEEEDTWQKLEVIKQFRHPKYNTSTLHHDIMLLKLKEKASLTLAVGTLPFPSQFNFVPPGRMCRVAGWGRTGVLKPGSDTLQEVKLRLMDPQACSHFRDFDHNLQLCVGNPRKTKSAFKGDSGGPLLCAGVAQGIVSYGRSDAKPPRVFTRISHYRPWINQILQAN
OUTPUT: 5.21

INPUT: Look at this binder and give its reported fB Cleavage EC50. chymase C22S/F41R/L99Y/G151T/F173K/R217S/A226R (enzyme) IIGGTESKPHSRPYMAYLEIVTSNGPSKRCGGFLIRRNFVLTAAHCAGRSITVTLGAHNITEEEDTWQKLEVIKQFRHPKYNTSTYHHDIMLLKLKEKASLTLAVGTLPFPSQFNFVPPGRMCRVAGWGRTGVLKPTSDTLQEVKLRLMDPQACSHKRDFDHNLQLCVGNPRKTKSAFKGDSGGPLLCAGVAQGIVSYGSSDAKPPRVFTRISHYRPWINQILQAN
OUTPUT: 3.45

INPUT: Look at this binder and give its reported fB Cleavage EC50. chymase C22S/L99H/F173I/K192R/Y215K/R217T/S218I/A226R (enzyme) IIGGTESKPHSRPYMAYLEIVTSNGPSKFCGGFLIRRNFVLTAAHCAGRSITVTLGAHNITEEEDTWQKLEVIKQFRHPKYNTSTHHHDIMLLKLKEKASLTLAVGTLPFPSQFNFVPPGRMCRVAGWGRTGVLKPGSDTLQEVKLRLMDPQACSHIRDFDHNLQLCVGNPRKTKSAFRGDSGGPLLCAGVAQGIVSKGTIDAKPPRVFTRISHYRPWINQILQAN
OUTPUT: 5.62
